test system: MILI (PIWIL2) piRISC loaded with piRNA #1 (26 nt); assay: pre-steady-state target cleavage rate (min^-1); guide: piRNA #1 5'p-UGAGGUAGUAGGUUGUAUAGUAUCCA; higher = faster piRNA-guided slicing of the target; settings: auxiliary factor: 500 nM mouse GTSF1;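 also: 1 nM active piRISC with 0.1 nM target library at 33 °C single turnover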
Assign classes using reported pre-steady-state target cleavage rate values and the ranges L (below 0.008), M (0.008 to below 0.1), H (0.1 or more), please.

Before answering, review these 6 worked examples.
GGAGACCUAUGAUAUGUUCCUACUCCUCA: L
GGAGACCUAUGUAUACAACCUUCUACCACA: L
GGAGUGGAUACUAUACAACCAACUACCUCA: L
GGAGUGGAUACUAUAGAACCUACUACGUCA: M
GGAGAGGAUUCUAUACAAGCUACUACCUCA: H
GGAGACCUAUGUAAACAACCUUCUACCUCA: L

Which pre-steady-state target cleavage rate band matches "GGAGUAGAUACUAUACAACCUACUACCUCA" ?
H

Which pre-steady-state target cleavage rate band matches "GGAGACGAUACUAUUGUACCUACUACCUCA" ?
H

Which pre-steady-state target cleavage rate band matches "GGAGUGCAUACUAUACAACCAACUACCUCA" ?
L

Which pre-steady-state target cleavage rate band matches "GGAGACGAUACUACUACAACCUACUACCUCA" ?
H

Which pre-steady-state target cleavage rate band matches "GGAGACCAUACUAUAAACCUACUACCUCA" ?
M

Which pre-steady-state target cleavage rate band matches "GGAGACCUAUGUAUACAACCUACAACCUGA" ?
L

Which pre-steady-state target cleavage rate band matches "GGAGACGAUUCUAUAGAACCUACUACCUCA" ?
H

Which pre-steady-state target cleavage rate band matches "GGAGACCAUACUAAACAUCCUACUACCUCA" ?
H

----------
test system: MILI (PIWIL2) piRISC loaded with piRNA #1 (26 nt); assay: pre-steady-state target cleavage rate (min^-1); guide: piRNA #1 5'p-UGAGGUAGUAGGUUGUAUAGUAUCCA; higher = faster piRNA-guided slicing of the target; settings: auxiliary factor: 500 nM mouse GTSF1;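 also: 1 nM active piRISC with 0.1 nM target library at 33 °C single turnover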
measuredParameter: pre-steady-state target cleavage rate
Answer as a number with no unit attached.

Use these answered entries as a reference point.
GGAGACCUAACUAUACAACGUACUACCUCA: 0.0137
GGAGACCAUACUAUUCAACCUACUACCUGA: 0.114
GGAGACCUUACUAUACUACCUACUACCUGA: 0.105
GGAGAGGAUCACUAUACAACCUACUACCUCA: 0.086
GGAGACCUUACUAUUGAACCUACUACCUCA: 0.137

Kindly consider the entry below.
I looked up "GGAGACCUAUGAUUACAACCUACUGACCUCA" and its pre-steady-state target cleavage rate for MILI (PIWIL2) piRISC loaded with piRNA #1 (26 nt) was 0.00605

----------
system: MILI (PIWIL2) piRISC loaded with L1MC piRNA (26 nt); test: pre-steady-state target cleavage rate (min^-1); guide: L1MC piRNA 5'p-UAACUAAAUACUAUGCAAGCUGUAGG; MIWI and MILI are mouse PIWI proteins and EfPiwi is from a freshwater sponge; tags in brackets are library labels; higher = faster piRNA-guided slicing of the target; conditions: auxiliary factor: 500 nM mouse GTSF1;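 also: 1 nM active piRISC with 0.1 nM target library at 33 °C single turnover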
Examples of sequences with documented pre-steady-state target cleavage rate follow.
Answer as a number with no unit attached.

Use these answered entries as a reference point.
UCCUCCAUCAGCUUGCAUAGUAUUUAGAAA: 0.0615
UCCUGGAACUCCUUGCAUAGUAUUUACAAA: 0.241
UCCUGGAUCAGCGUUGCAUAGUAUUUAGUUA: 0.212
UCCUGGAUGAGCUGCAUAGUAUUUAGUUA: 0.101
UCCUCCAACAGCUAGCAUAGUAUUUAGUUA: 0.25

Kindly consider the entry below.
// recorded pre-steady-state target cleavage rate for "UCCUGCUACAGCUUGCAUAGGAUUUAGUUA" : 0.00856

Data origin: the supplement of paper PMC10338343
